B1: 1-phosphatidylinositol 4,5-bisphosphate phosphodiesterase gamma-2, residues 772 to 827; numbered along this chain, P16885 (parent)
chain: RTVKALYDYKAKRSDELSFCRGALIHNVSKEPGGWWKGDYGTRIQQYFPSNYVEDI

variants of: B1; test: abundance fitness (aPCA) (normalised: wild type 0, dead -1); higher = more abundant; growth selection in yeast, the domain comes from the species named; conditions: Homo sapiens
Classify as follows. Reported abundance fitness greater than or equal to -0.3: Fulfilled. Reported abundance fitness below: Not fulfilled.

Past entries and their recorded results:
mutation: A23Q
discreteLabel: Not fulfilled
--
mutation: A23R
discreteLabel: Not fulfilled

Does the variant E31A have recorded abundance fitness that is -0.3 or more?
Fulfilled

Could you tell me if the measured abundance fitness of W35T reaches -0.3 or more?
Fulfilled

Quick check, abundance fitness >= -0.3? E31Q
Fulfilled

Can G22C be said to have abundance fitness at or above -0.3?
Not fulfilled

Quick check: does L6N have abundance fitness greater than or equal to -0.3?
Fulfilled
